Numbers sourced from patent US20080161288A1.

System: bovine beta-2 adrenoceptor (Bos taurus, UniProt Q28044)
Sequence (Q28044 whole entry): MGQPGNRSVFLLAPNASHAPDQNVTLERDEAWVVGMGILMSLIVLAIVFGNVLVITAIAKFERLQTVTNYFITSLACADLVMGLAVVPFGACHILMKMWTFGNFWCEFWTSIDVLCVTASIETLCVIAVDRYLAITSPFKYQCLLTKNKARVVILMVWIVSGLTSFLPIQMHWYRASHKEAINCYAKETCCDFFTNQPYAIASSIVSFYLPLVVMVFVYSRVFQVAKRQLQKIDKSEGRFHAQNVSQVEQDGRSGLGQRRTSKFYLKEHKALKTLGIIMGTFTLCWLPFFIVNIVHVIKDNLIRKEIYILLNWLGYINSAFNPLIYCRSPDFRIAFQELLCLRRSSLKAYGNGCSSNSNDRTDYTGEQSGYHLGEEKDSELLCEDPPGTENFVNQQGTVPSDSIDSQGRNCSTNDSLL
Assay Overview: cAMP assay in CHO cells transfected with the bovine beta-2 adrenoceptor
Condition Set: cAMP (DiscoveRx Hit Hunter cAMP II) in CHO cells transfected with bovine beta-2 adrenoceptor, 30 minutes with compound, 0.5 mM IBMX
pEC50: −log10 of the molar value.
Entries are sorted into classes by pEC50 as follows: low-valued (below 7), mid-valued (7 to below 8), high-valued (8 or more)

For orientation, consider the following solved cases.
INSERT INTO measurements (compound, class_label) VALUES
  ('CC(CCc1cccc(O)c1Cl)N[C@@H]1CCn2c(=O)[nH]c3cccc(c32)[C@H]1O (single isomer, unassigned) [Example 50]', 'high-valued'),
  ('CC(/C=C/c1ccccc1F)N[C@@H]1CCn2c(=O)[nH]c3cccc(c32)[C@H]1O (single isomer, unassigned) [Example 40a]', 'low-valued'),
  ('CC(CCc1ccc(O)c(F)c1)NC1CCn2c(=O)[nH]c3cccc(c32)C1O (single isomer, unassigned) [Example 58]', 'high-valued'),
  ('CC(CCc1ccccc1O)N[C@@H]1CCn2c(=O)[nH]c3cccc(c32)[C@H]1O (single isomer, unassigned) [Example 48]', 'high-valued'),
  ('CC(CCc1ccc(O)cc1)N[C@@H]1CCn2c(=O)[nH]c3cccc(c32)[C@H]1O (single isomer, unassigned) [Example 2b]', 'low-valued'),
  ('CC(CCc1ccc(F)cc1O)N[C@@H]1CCn2c(=O)[nH]c3cccc(c32)[C@H]1O (mixture of isomers) [Example 24]', 'high-valued'),
  ('CC(/C=C/c1ccccc1F)N[C@@H]1CCn2c(=O)[nH]c3cccc(c32)[C@H]1O (single isomer, unassigned) [Example 40b]', 'mid-valued'),
  ('CC(CCc1ccc(C(=O)NC2CC2)cc1)NC1CCn2c(=O)[nH]c3cccc(c32)C1O (single isomer, unassigned) [Example 64]', 'mid-valued'),
  ('CC(=O)Nc1ccccc1CCC(C)NC1CCn2c(=O)[nH]c3cccc(c32)C1O (single isomer, unassigned) [Example 63]', 'mid-valued');

Req: Please report the category associated with CC(CC(C)(C)c1ccccc1)N[C@@H]1CCn2c(=O)[nH]c3cccc(c32)[C@H]1O (single isomer, unassigned) [Example 14a] , nothing else.
Resp: low-valued

* * *

System: bovine beta-2 adrenoceptor (Bos taurus, UniProt Q28044)
Assay Overview: cAMP assay in CHO cells transfected with the bovine beta-2 adrenoceptor
Condition Set: cAMP (DiscoveRx Hit Hunter cAMP II) in CHO cells transfected with bovine beta-2 adrenoceptor, 30 minutes with compound, 0.5 mM IBMX
The compounds listed here are annotated with their pEC50.
Please keep in mind that pEC50 is minus log10 of the molar concentration; only the number is needed.

Completed entries (count: 3):
INSERT INTO measurements (compound, reading) VALUES
  ('CC(CCc1ccc(Cl)cc1O)N[C@@H]1CCn2c(=O)[nH]c3cccc(c32)[C@H]1O (mixture of isomers) [Example 26]', 8.51),
  ('CC(CCc1cccc(F)c1O)N[C@@H]1CCn2c(=O)[nH]c3cccc(c32)[C@H]1O (mixture of isomers) [Example 28b]', 7.26),
  ('CC(CCc1ccc(O)c(C(F)(F)F)c1)NC1CCn2c(=O)[nH]c3cccc(c32)C1O (single isomer, unassigned) [Example 60]', 7.98);

The value of pEC50 measured for the compound CC(CCc1cccc(C(N)=O)c1)NC1CCn2c(=O)[nH]c3cccc(c32)C1O (single isomer, unassigned) [Example 66] turned out to be 6.86

* * *

System: bovine beta-2 adrenoceptor (Bos taurus, UniProt Q28044)
Construct: expressed in transfected cells; host or cells: CHO cells
Assay Overview: cAMP assay in CHO cells transfected with the bovine beta-2 adrenoceptor
Format: cell-based
Condition Set: cAMP (DiscoveRx Hit Hunter cAMP II) in CHO cells transfected with bovine beta-2 adrenoceptor, 30 minutes with compound, 0.5 mM IBMX
Experimental: CHO cells transfected with the bovine or porcine beta-2 adrenceptors were maintained in culture in DMEM/HAMS F12+10% FBS+2 mM glutamine+500 μg/ml geneticin (for the porcine receptor the medium was supplement with 1.5 mM HEPES) at 37° C. with a 5% CO2 atmosphere. […] Duplicate samples were run for each experimental compound and the data generated was analysed using EC50 analysis software in Graphpad Prism.
Value Type: EC50

INSERT INTO assay_data (compound, value_type, reading) VALUES
  ('CC(CCc1cccc(C(=O)O)c1)N[C@@H]1CCn2c(=O)[nH]c3cccc(c32)[C@H]1O (single isomer, unassigned) [Example 53]', 'EC50', '167 nM'),
  ('CC(CCc1ccc(F)cc1)N[C@@H]1CCn2c(=O)[nH]c3cccc(c32)[C@H]1O (mixture of isomers) [Example 23]', 'EC50', '15.8 nM'),
  ('CC(CCc1ccc2c(c1)CCO2)N[C@@H]1CCn2c(=O)[nH]c3cccc(c32)[C@H]1O (single isomer, unassigned) [Example 3a]', 'EC50', '34.3 nM'),
  ('CC(CCc1c(F)cccc1Cl)N[C@@H]1CCn2c(=O)[nH]c3cccc(c32)[C@H]1O (mixture of isomers) [Example 32]', 'EC50', '8.6 nM'),
  ('CC(CC(C)(C)c1ccccc1)N[C@@H]1CCn2c(=O)[nH]c3cccc(c32)[C@H]1O (single isomer, unassigned) [Example 14b]', 'EC50', '3.4 nM'),
  ('CC(CCc1cccc(NS(C)(=O)=O)c1)NC1CCn2c(=O)[nH]c3cccc(c32)C1O (single isomer, unassigned) [Example 65]', 'EC50', '74.7 nM'),
  ('CC(CCc1ccc(O)c(F)c1)NC1CCn2c(=O)[nH]c3cccc(c32)C1O (single isomer, unassigned) [Example 36]', 'EC50', '1.4 nM'),
  ('Cc1cccc(CCC(C)N[C@@H]2CCn3c(=O)[nH]c4cccc(c43)[C@H]2O)c1O (mixture of isomers) [Example 17]', 'EC50', '3.3 nM'),
  ('CC(CCc1cc(Br)cc(Br)c1O)N[C@@H]1CCn2c(=O)[nH]c3cccc(c32)[C@H]1O (mixture of isomers) [Example 47]', 'EC50', '> 200 nM'),
  ('CC(CCc1ccc(Cl)cc1Cl)N[C@@H]1CCn2c(=O)[nH]c3cccc(c32)[C@H]1O (mixture of isomers) [Example 29]', 'EC50', '6.9 nM');

Next up:
Entry CC(CCc1ccc2c(c1)OCO2)NC1CCn2c(=O)[nH]c3cccc(c32)C1O (centres unmarked) [Example 12] — recorded EC50 = 23.1 nM

* * *

Property: EC50; scope: individual compounds
System: porcine beta-2 adrenoceptor (Sus scrofa)
Sequence (Q28997 whole entry): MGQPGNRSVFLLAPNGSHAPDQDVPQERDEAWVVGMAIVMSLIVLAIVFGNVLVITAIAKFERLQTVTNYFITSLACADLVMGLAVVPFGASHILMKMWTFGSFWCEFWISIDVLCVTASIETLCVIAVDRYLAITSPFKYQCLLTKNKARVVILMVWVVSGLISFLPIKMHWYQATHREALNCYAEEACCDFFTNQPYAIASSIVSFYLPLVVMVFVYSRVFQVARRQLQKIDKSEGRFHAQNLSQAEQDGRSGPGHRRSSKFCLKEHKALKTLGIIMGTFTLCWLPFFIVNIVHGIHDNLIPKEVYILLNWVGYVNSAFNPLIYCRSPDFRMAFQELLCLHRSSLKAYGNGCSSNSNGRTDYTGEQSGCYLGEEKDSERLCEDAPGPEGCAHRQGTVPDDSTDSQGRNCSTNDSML
Assay Overview: cAMP assay in CHO cells transfected with the porcine beta-2 adrenoceptor
Condition Set: cAMP (DiscoveRx Hit Hunter cAMP II) in CHO cells transfected with porcine beta-2 adrenoceptor, 30 minutes with compound, 0.5 mM IBMX
Report the figure in nM without appending any unit label.

INSERT INTO assay_data (compound, value_type, units_label, reading) VALUES
  ('CC(CCc1ccc(OCC2CC2)cc1)N[C@@H]1CCn2c(=O)[nH]c3cccc(c32)[C@H]1O (mixture of isomers) [Example 1a]', 'EC50', 'nM', 5.9);

Summary for this compound, CC(CCc1cc(Cl)cc(Cl)c1O)N[C@@H]1CCn2c(=O)[nH]c3cccc(c32)[C@H]1O (mixture of isomers) : EC50 is 2.7

Lookup result for CC(CCc1cccc(O)c1)NC1CCn2c(=O)[nH]c3cccc(c32)C1O (single isomer, unassigned) ; measured EC50: 5.6

Value of measured EC50 for the entry CC(CCc1ccc2c(c1)CCO2)N[C@@H]1CCn2c(=O)[nH]c3cccc(c32)[C@H]1O (single isomer, unassigned) [Example 3b] : 108

* * *

System: UniProtKB Q28044
Assay Overview: cAMP assay in CHO cells transfected with the bovine beta-2 adrenoceptor
Condition Set: cAMP (DiscoveRx Hit Hunter cAMP II) in CHO cells transfected with bovine beta-2 adrenoceptor, 30 minutes with compound, 0.5 mM IBMX
Value Type: pEC50
Just so you know, pEC50 here is -log10 of the concentration in molar units; reply with that number alone.

// below: answered molecules
INSERT INTO assay_data (molecule, value_type, reading) VALUES
  ('Cc1cc(CCC(C)NC2CCn3c(=O)[nH]c4cccc(c43)C2O)cc(C)c1O (stereo not shown)', 'pEC50', 6.66),
  ('CC(CCc1ccc(O)cc1)N[C@@H]1CCn2c(=O)[nH]c3cccc(c32)[C@H]1O (single isomer, unassigned) [Example 2c]', 'pEC50', 7.88),
  ('CC(CCc1cccc(Cl)c1O)N[C@@H]1CCn2c(=O)[nH]c3cccc(c32)[C@H]1O (single isomer, unassigned) [Example 5b]', 'pEC50', 8.80);

pEC50 in this record for CC(CCc1cc(Cl)cc(Cl)c1O)N[C@@H]1CCn2c(=O)[nH]c3cccc(c32)[C@H]1O (mixture of isomers) : 8.66

The molecule identified as C[C@H](CCc1ccccc1O)N[C@@H]1CCn2c(=O)[nH]c3cccc(c32)[C@H]1O registered its pEC50 at 9.00

Per the record, CC(CCc1ccccc1)N[C@@H]1CCn2c(=O)[nH]c3cccc(c32)[C@H]1O (single isomer, unassigned) [Example 9e] has pEC50 of 8.15

Query CC(CCc1ccc(C(=O)NCC(F)(F)F)cc1)N[C@@H]1CCn2c(=O)[nH]c3cccc(c32)[C@H]1O (single isomer, unassigned) yields pEC50 of 8.11
